Tested on: AGE-BSA crosslinked to collagen
Test: Cross-link Breaking Assay (sandwich enzyme immunoassay)
Format: biochemical
Conditions: anti-AGE antibody; at 30 mM
Simple rule here: Breaking Anti-AGE less than 70% is 1, otherwise -1.

q: Check if Breaking Anti-AGE falls below 70% for COC(=O)C[n+]1csc(C)c1C.[Br-] .
a: 1

q: How about O=C(C[n+]1ccsc1)c1ccc(Br)cc1.[Br-] ?
a: -1

q: Subsequent entry: O=C(O)C[n+]1csc2ccccc21.[Br-] [3-(carboxymethyl)benzothiazolium bromide]
a: 1

q: Same question for Cc1sc[n+](CC(N)=O)c1C.[Br-] please.
a: 1

q: How about COC(=O)C[n+]1csc2ccccc21.[Br-] ?
a: 1

q: Can you handle Cc1csc[n+]1CC(N)=O.[Br-] next?
a: -1

q: How about this molecule: Cc1c(CCO)sc[n+]1CC(=O)c1ccccc1.[Br-]
a: 1

q: One more molecule: COC(=O)C[n+]1ccsc1.[Br-]
a: 1

q: And Cc1c(CCO)sc[n+]1Cc1ccccc1.[Cl-] ?
a: 1

q: Try Nc1sc2ccccc2[n+]1N next.
a: -1

q: And COC(=O)C[n+]1cscc1C.[Br-] ?
a: 1

* * *

Molecular target: AGE-BSA crosslinked to collagen
Test: Cross-link Breaking Assay (sandwich enzyme immunoassay)
Assay type: biochemical
Conditions: detection with anti-AGE antibody; read-out: IC50 (mM) Anti-AGE
Protocol: The present invention also involves a novel sandwich enzyme immunoassay used to ascertain the ability of test compounds to “break” or reverse already formed advanced glycosylation endproducts by detecting the breaking of AGE (Advanced glycosylation endproduct) moieties from AGE-crosslinked protein. […] Methods Preparation of Solutions and Buffers • 1. […] The pH of the incubation mixture was monitored weekly and adjusted to pH 7.4 if necessary. […]
assayEndpoint: log10 of IC50 (log10 of the value in mM)
Please interpret these as log10 of IC50 where IC50 is in mM.

Here are 5 molecules together with their reported answers.
| entrySmiles | testedOn | log10 of IC50 |
| --- | --- | --- |
| Cc1c(CCO)sc[n+]1CC(N)=O.[Br-] | AGE-BSA crosslinked to collagen | -1.92 |
| O=C(C[n+]1ccsc1)c1ccccc1.[Br-] | AGE-BSA crosslinked to collagen | -1.70 |
| NC(=O)C[n+]1csc2ccccc21.[Br-] | AGE-BSA crosslinked to collagen | -0.40 |
| Cc1csc[n+]1CC(=O)c1ccccc1.[Br-] | AGE-BSA crosslinked to collagen | -0.64 |
| CC(=O)C[n+]1ccsc1.[Cl-] | AGE-BSA crosslinked to collagen | -0.08 |

Quick request: log10 of IC50 for each listed item, please.
1. Cc1csc[n+]1CC(N)=O.[Br-]
2. Cc1c(CCO)sc[n+]1CC(=O)c1ccccc1.[Br-]

a:
1. 0.67
2. 1.16

Dear colleague, could you please provide log10 of IC50 for the molecules listed below?
1. COC(=O)C[n+]1csc2ccccc21.[Br-]
2. Cc1c[n+](CC(=O)c2cc(C(C)(C)C)c(O)c(C(C)(C)C)c2)cs1
3. Cc1c(CCO)sc[n+]1Cc1ccccc1.[Cl-]

a:
[0.08, 0.48, -0.38]

* * *

Hi there, I'd appreciate the recorded Breaking Anti-AGE for every entry that follows.
System: AGE-BSA crosslinked to collagen
Assay: Cross-link Breaking Assay (sandwich enzyme immunoassay)
Assay type: biochemical
Conditions: anti-AGE antibody; at 10 mM
One number for each entry, in %.

Check out these entries, answers already filled in.
| entrySmiles | val |
| --- | --- |
| COC(=O)c1ccc(NC(=O)C[n+]2csc(CCO)c2C)cc1O | 24 |
| CCOC(=O)c1ccc(NC(=O)C[n+]2csc(CCO)c2C)cc1.[Br-] | 48 |
| Cc1c(CCO)sc[n+]1Cc1ccccc1[N+](=O)[O-].[Br-] | 11 |
| Cc1c(CCO)sc[n+]1Cc1c(Cl)cccc1Cl.[Cl-] | 6 |
| Nc1ccc2c(c1)sc(N)[n+]2CC(=O)c1ccc(F)cc1.[Br-] | 24 |
| Cc1c(CCO)sc[n+]1CC(=O)c1ccc2ccccc2c1.[Br-] | 52 |
| O=C(C[n+]1ccsc1)c1ccc2c(c1)OCCCO2.[Br-] | 17 |
| CC(C)(C)C(=O)C[n+]1ccsc1.[Br-] | 28 |

I have 3 compounds here; please give me Breaking Anti-AGE for each one.
1. CCCCN(CCCC)C(=O)C[n+]1csc(CCO)c1C.[Br-]
2. Cn1cc[n+](CC(=O)c2cc(C(C)(C)C)c(O)c(C(C)(C)C)c2)c1
3. Cc1c[n+](CC(=O)c2cc(C(C)(C)C)c(O)c(C(C)(C)C)c2)cs1

a:
25
56
48

* * *

Test system: AGE-BSA crosslinked to collagen
Assay: Cross-link Breaking Assay (sandwich enzyme immunoassay)
Assay type: biochemical
Settings: anti-AGE antibody; at 10 mM
assayEndpoint: Breaking Anti-AGE (%)
Numbers only, in %.

Example entries begin here.
| entrySmiles | unitText | Breaking Anti-AGE |
| --- | --- | --- |
| Nc1ccc2c(c1)sc(N)[n+]2CC(=O)c1ccc(Br)cc1.[Br-] | % | 27 |
| Cc1c(CCO)sc[n+]1CC(=O)Nc1c(C(C)C)cccc1C(C)C.[Br-] | % | 31 |
| COc1ccc(C(=O)C[n+]2c(N)sc3cc(N)ccc32)cc1.[Br-] | % | 29 |

Okay, next one:
q: Name the recorded Breaking Anti-AGE for Cc1c(CCOCc2c(Cl)cccc2Cl)sc[n+]1N.Cc1cc(C)c(S(=O)(=O)[O-])c(C)c1 .
a: 31

* * *

Provide the reported log10(IC50) of each item.
System: cross-linking of glycated bovine serum albumin (AGE-BSA) to rat tail tendon collagen
Test: Cross-linking Inhibition Assay
Conditions: inhibition of AGE-BSA cross-linking to collagen-coated plate
Please note: log10 values; quantity IC50; unit µM.

The examples below pair each entry with its known result.
| compound | log10(IC50) |
| --- | --- |
| Cc1c(CCO)sc[n+]1CC(N)=O.[Br-] | 3.15 |
| Cc1sc[n+](CC(=O)c2cc(C(C)(C)C)c(O)c(C(C)(C)C)c2)c1C | 2.20 |
| CCCCCc1ccc(C(=O)C[n+]2csc(CCO)c2C)cc1.[Br-] | 3.18 |
| Cc1csc[n+]1CC(=O)c1ccccc1.[Br-] | 3.75 |
| Cc1sc[n+](CC(=O)c2ccc(Br)cc2)c1C | 3.47 |

Each compound below has a reported value. Please supply its log10(IC50).
1. O=C(C[n+]1ccsc1)c1ccccc1.[Br-]
2. Cc1c(CCO)sc[n+]1CC(=O)c1ccc(Br)cc1
3. Cc1c[n+](CC(=O)c2cc(C(C)(C)C)c(O)c(C(C)(C)C)c2)cs1
4. COC(=O)C[n+]1csc(C)c1.[Br-]

a:
4.05
3.47
2.89
3.51

Your task in this section: give log10(IC50) for each listed record.
1. NC(=O)C[n+]1ccsc1 [3-(2-amino-2-oxoethyl)thiazolium bromide]
2. Cn1cc[n+](CC(=O)c2cc(C(C)(C)C)c(O)c(C(C)(C)C)c2)c1
3. COC(=O)C[n+]1ccsc1.[Br-]
4. Nc1sc2ccccc2[n+]1N
5. NC(=O)C[n+]1csc2ccccc21.[Br-]
6. Cc1c[n+](CC(=O)c2ccccc2)cs1
7. COC(=O)c1ccc(NC(=O)C[n+]2csc(CCO)c2C)cc1O
8. COC(=O)C[n+]1csc(C)c1C.[Br-]

a:
1: 2.72; 2: 3.65; 3: 2.40; 4: 1.87; 5: 1.30; 6: 4.10; 7: 3.25; 8: 2.68

* * *

System: AGE-BSA crosslinked to collagen
Experiment: Cross-link Breaking Assay (sandwich enzyme immunoassay)
Format: biochemical
Conditions: anti-BSA antibody; at 10 mM
assayEndpoint: Breaking Anti-BSA (%)
One number for each entry, in %.

Solved entries (count: 5):
| entrySmiles | Breaking Anti-BSA, % |
| --- | --- |
| Nc1ccc2c(c1)sc(N)[n+]2CC(=O)c1ccc(F)cc1.[Br-] | 40 |
| CCCCN(CCCC)C(=O)C[n+]1csc(CCO)c1C.[Br-] | 38 |
| Cn1cc[n+](CC(=O)c2cc(C(C)(C)C)c(O)c(C(C)(C)C)c2)c1 | 38 |
| CC(C)(C)C(=O)C[n+]1ccsc1.[Br-] | 37 |
| COc1ccc(C(=O)C[n+]2c(N)sc3cc(N)ccc32)cc1.[Br-] | 35 |

Below are some compounds; for each one, tell me its Breaking Anti-BSA.
1. Cc1c(CCO)sc[n+]1Cc1c(Cl)cccc1Cl.[Cl-]
2. Cc1c(CCO)sc[n+]1CC(=O)Nc1c(C(C)C)cccc1C(C)C.[Br-]
3. Cc1c(CCOCc2c(Cl)cccc2Cl)sc[n+]1N.Cc1cc(C)c(S(=O)(=O)[O-])c(C)c1
4. Cc1c(CCO)sc[n+]1Cc1ccccc1[N+](=O)[O-].[Br-]

a:
27
48
54
13
